Every entry's value here was drawn from patent US20220332795A1.

# Target Or System: T1, human CD71 extracellular domain (human, UniProt P02786 89-760, biotinylated)
# T1 construct: extracellular domain; also called hCD71; huCD71 ECD
# T1 sequence (P02786 other isoform, or with tags, fused parts or gaps): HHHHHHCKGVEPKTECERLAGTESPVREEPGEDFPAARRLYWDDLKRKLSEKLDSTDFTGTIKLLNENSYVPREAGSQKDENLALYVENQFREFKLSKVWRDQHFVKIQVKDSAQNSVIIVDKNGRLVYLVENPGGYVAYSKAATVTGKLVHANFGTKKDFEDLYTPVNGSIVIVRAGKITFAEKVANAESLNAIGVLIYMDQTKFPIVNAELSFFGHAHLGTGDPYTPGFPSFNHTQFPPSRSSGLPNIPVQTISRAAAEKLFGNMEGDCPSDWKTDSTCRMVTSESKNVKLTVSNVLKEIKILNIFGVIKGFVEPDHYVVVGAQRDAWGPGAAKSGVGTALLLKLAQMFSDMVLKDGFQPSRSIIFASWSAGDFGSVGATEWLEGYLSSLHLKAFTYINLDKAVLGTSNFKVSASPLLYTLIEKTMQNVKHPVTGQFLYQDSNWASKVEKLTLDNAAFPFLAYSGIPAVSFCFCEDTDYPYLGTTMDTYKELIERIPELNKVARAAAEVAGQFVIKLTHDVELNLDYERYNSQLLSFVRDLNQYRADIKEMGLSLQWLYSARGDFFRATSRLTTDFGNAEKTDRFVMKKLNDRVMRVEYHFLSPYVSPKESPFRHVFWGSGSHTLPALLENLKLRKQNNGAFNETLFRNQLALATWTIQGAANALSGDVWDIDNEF
# Assay Notes: solution ELISA screen, signal ratio to HSA control
Measure: hCD71:HSA (ratio)
Please reply with the bare figure in ratio and do not write the unit itself.

See these solved cases before continuing.
SEQ ID NO 261 (designed binder, not shown: small tags and cut ends) MLPAPKNLVVSRVTEDSARLSWTAPDAAFDSFYIAYAEPRPDGEAILLQVPGSERSYDLTGLKPGTEYSVLIHGVKGGLLSSPLIAKFTT = 13.7
SEQ ID NO 213 (designed binder, not shown: small tags and cut ends) MLPAPKNLVVSRVTEDSARLSWTAPDAAFDSFYIAYAEPRPDGEAILLGVPGSERSYDLTGLKPGTEYSVLIHGVKGGLLSSPLFTT = 24.6
SEQ ID NO 234 (designed binder, not shown: small tags and cut ends) MLPAPKNLVVSRVTEDSARLSWTAPDAAFDSFYIAYAEPRPDGEAIVLVVPGSERSYDLTGLKPGTEYSVLIHGVKGGLLSSPLSAIFTT = 216

In: Look up hCD71:HSA: SEQ ID NO 216 (designed binder, not shown: small tags and cut ends) MLPAPKNLVVSRVTEDSARLSWTAPDAAFDSFYIAYAEPRPDGEAISLSVPGSERSYDLTGLKPGTEYSVLIHGVKGGLLSSPPKFTT
Out: 21.6
